# TGI per record follows
# Test system: BT-549 breast
# experiment_summary: NCI tumour cell line growth inhibition, 48 h

Here is how some compounds turned out for TGI.
CC(=O)Nc1ccc(OC(C)=O)cc1 = 0.165 µM
CCCS(=O)(=O)Nc1cccc(Nc2ncnc3cc(NC(=O)CCl)ccc23)c1Cl = 6.69 µM
Cc1nc2ccccc2c(/C=C/c2ccccc2)c1C(=O)/C=C/c1ccc(C(F)(F)F)cc1 = 2.89 µM
C=CCOc1ccc(N)c([N+](=O)[O-])c1 = > 100 µM
FC(F)(F)c1nc(SCc2ccc(Cl)cc2)n[nH]1 = > 100 µM
CCn1c(SCC(=O)Nc2cc(C(F)(F)F)ccc2Cl)nc2ccccc2c1=O = > 100 µM
O=S1(=O)c2ccccc2N2C(c3ccccc3)=NOC2(c2ccccc2)CC1c1ccc(Br)cc1 (stereo not drawn) = > 100 µM
CC(=O)C1C(=O)C(C(C)=O)C2C3C=CC(C3)C12 (stereo not drawn) = > 100 µM

Q: Query TGI for O=C1/C(=C/c2ccc(F)cc2)CN(C(=O)C(Cl)Cl)C/C1=C\c1ccc(F)cc1
A: 0.81 µM

---

# Tested on: UACC-62 melanoma
# experiment_summary: NCI tumour cell line growth inhibition, 48 h
measured_attribute: TGI

Past entries and their recorded results:
CCOC(=O)[C@@]1(C(C)=O)CC(C)=C(C)C[S@]1=O = > 100 µM
Cn1c2ccccc2c2c3c(c4c5ccccc5n(C5OC(CO)C(O)C(O)C5O)c4c21)C(=O)OC3=O (configuration not stated) = > 100 µM
Cc1ccc(N=C2OP(=O)(Nc3ccc(C)cc3)Oc3ccccc32)cc1 (configuration not stated) = > 100 µM

Proceeding to the next molecule to report its TGI.
Q: Give reported TGI value for c1ccc(SCCc2ccncc2)cc1
A: > 100 µM

---

# Tested on: OVCAR-8 ovarian
# experiment_summary: NCI tumour cell line growth inhibition, 48 h
Listing of recorded TGI by entry.

N#Cc1ccc(OCCSCCCCCCCCCCSCCOc2ccc(C#N)cc2)cc1 = > 100 µM
O=C(O)/C=C/c1ccc(OS(=O)(=O)O)cc1 = > 100 µM
CC(=O)OCC1=CC2OC(=O)C3=COC(OC4OC(CO)C(O)C(O)C4O)C1C32 (stereo not given) = > 100 µM
O=C1/C(=C/c2ccccc2)CCc2ccc([N+](=O)[O-])cc21 = > 100 µM
C1C[OH+]CCNCC[OH+]CC[OH+]CCN1.N.[Cl-].[Pt+4] = > 100 µM

Q: Consider the molecule O=Cc1ccccc1CCn1c(=O)c2cc3c(=O)n(CCc4ccccc4C=O)c(=O)c3cc2c1=O . State its measured TGI.
A: > 100 µM

Q: Supply reported TGI belonging to this molecule: Cc1nc2ccccc2c(/C=C/c2ccccc2)c1C(=O)/C=C/c1ccc(C(F)(F)F)cc1
A: 7.98 µM

Q: Specify TGI for CCc1cccc(NC(=O)Nc2ccc(Oc3ccc4nc(NC(=O)OC)[nH]c4c3)cc2)c1 and stop.
A: > 18.8 µM

Q: Let me know recorded TGI for COc1ccc2c(c1)C(=O)c1c-2c(N2CCN(C(=O)CCNCCNCCN)CC2)nc2ccccc12 , thanks.
A: 72.2 µM

Q: Let me know recorded TGI for Cc1cccc(N=Cc2ccc(N(CCC#N)S(=O)(=O)c3ccccc3)cc2C)c1 , thanks.
A: > 100 µM

Q: Hello, please tell me recorded TGI for this one: CCCCc1nc(C)oc1C(C)C
A: > 100 µM

Q: Using known records, supply TGI for CCOC(=O)C(NC(=O)c1cccc(Cl)c1)(Nc1ccc(S(=O)(=O)Nc2cc(C)nc(C)n2)cc1)C(F)(F)F (stereo not given)
A: > 100 µM

Q: # return recorded TGI for entry CC[O-].CC[O-].O=C([CH-]C(=O)c1ccccc1)CCCCCCC(=O)[CH-]C(=O)c1ccccc1.[Ti+4]
A: > 100 µM

---

# Test system: SK-MEL-2 melanoma
# experiment_summary: NCI tumour cell line growth inhibition, 48 h
Entries annotated with measured TGI

Known results for compounds:
COc1cc(NC(C)=O)ccc1C(=O)N/N=C/c1ccco1 = > 100 µM
Cc1oc2nc(N(C)C)nc(NN)c2c1C = > 100 µM
O=C(O)c1ccccc1/C=C1/Cc2ccc3c(c2C1=O)CCC3 = 44.9 µM
CC12C3CC4C5CC(C(C53)[C@@H]1NCc1ccccc1)C42 (stereo not given in full) = > 100 µM
COc1ccc2nc3cc([N+](=O)[O-])ccc3c(Nc3ccc(S(=O)(=O)Nc4ncccn4)cc3)c2c1 = > 86.3 µM

Q: Dear colleague, please send me the reported TGI for C1C[OH+]CCNCC[OH+]CC[OH+]CCN1.N.[Cl-].[Pt+4] when you can.
A: > 100 µM

Q: Could you please provide reported TGI for CC(C)(CCl)NC(=O)c1cccc(C(=O)NC(C)(C)CCl)n1 ? Thanks!
A: > 100 µM

Q: Answer with the recorded TGI of CC[C@@H]1CSC(/C=C/C2OC3OC(C)(C)OC3C3OC(C)(C)OC23)=N1 (stereo not given in full) only.
A: 29.8 µM

Q: Indicate its recorded TGI; the compound in question is COc1ccc2c(=O)c3c([nH]c2c1)OCC3=O
A: > 100 µM

Q: Could you please provide reported TGI for CC(=O)OC1=C2CC[C@@H]3C(CC[C@@]4(C)C3CC[C@@H]4OC(C)=O)[C@@]2(C)CC(C#N)C1=O (stereo not given in full) ? Thanks!
A: 59.4 µM

---

# System: UO-31 renal
# experiment_summary: NCI tumour cell line growth inhibition, 48 h
measured_attribute: TGI

# annotated cases, reported TGI shown
C#CC(C)(C)OCCCCOc1cc(O)c2c(=O)c3ccccc3n(C)c2c1 = > 100 µM
O=C1c2ccccc2C(=O)c2c1oc1c2c(=O)[nH]c2ccc(Cl)cc21 = 0.605 µM
Cc1nc(C)c(N2CCN(S(N)(=O)=O)CC2)c(=O)[nH]1 = > 100 µM
Cc1cc(=O)oc2cc3oc(N(C)c4ccccc4)nc(=O)c3cc12 = > 100 µM
CC1(O)C2(c3ccccc3)CCC[N+]1(C)CC2 (stereo not given) = > 100 µM
CCOC(=O)C(NC(=O)c1ccccc1)(c1ccc(S(=O)(=O)Nc2onc(C)c2C)cc1)C(F)(F)F (stereo not given) = > 100 µM

Attention now turns to another entry.
Q: Hello, please tell me recorded TGI for this one: COn1oc(=O)c2ccccc21
A: > 100 µM

---

# System: SK-MEL-2 melanoma
# experiment_summary: NCI tumour cell line growth inhibition, 48 h; in the data active = GI50 below about 0.43 µM; inactive = the rest
Log the outcome using a class from YES for active, NO for inactive

Reference set, count: 8
S=C1SCN(Cc2ccccc2)CN1Cc1ccccc1 = NO
Fc1ccc(-c2ncn(CCCN3CCOCC3)c2-c2ccncc2)cc1 = NO
CCn1c(SCC(=O)Nc2cc(C(F)(F)F)ccc2Cl)nc2ccccc2c1=O = NO
C#Cc1cccc(NC(=O)c2cccc(NC(=O)CCl)c2)c1 = NO
CCN(CCO)CCCC(C)Nc1ccnc2cc(Cl)ccc12 (configuration not stated) = NO
COc1ccc(C2=NN(C(C)=O)C(c3ccc(Oc4ccnc5cc(Cl)ccc45)c(OC)c3)C2)cc1 (configuration not stated) = NO
CC(C)=Cc1cccc2[nH]c(O)c(N=Nc3ccc(S(N)(=O)=O)cc3)c12 = NO
CN[C@@H](Cc1cccc2ccccc12)C(=O)N[C@@H](CC(C)C)B(O)O = YES

Q: Answer briefly: the call reported for CCCS(=O)(=O)Nc1cccc(Nc2ncnc3cc(NC(=O)CCl)ccc23)c1Cl in this assay.
A: NO

---

# Test system: SR leukemia
# experiment_summary: NCI tumour cell line growth inhibition, 48 h
Where a SMILES comes first, the peptide text is derived from it. The star is where a group is joined. Cbz = O=C(OCc1ccccc1)*
measured_attribute: TGI

COc1cc(NC(C)=O)ccc1C(=O)N/N=C/c1ccco1 = > 100 µM
CCCCc1n(Cc2ccc3ccccc3n2)cc[n+]1Cc1ccc2ccccc2n1 = 4.87 µM
CC[C@@H]1CSC(/C=C/C2OC3OC(C)(C)OC3C3OC(C)(C)OC23)=N1 (some centres undefined) = 37.4 µM
CCN1C(=O)N(CC)C2C1NN=c1s/c(=C\c3ccc(C(F)(F)F)cc3)c(=O)n12 (centres undefined) = 5.77 µM
COC(=O)C(CC(C)C)NC(=O)C(CCCN=C(N)N)NC(=O)OCc1ccccc1 (stereo not drawn) (Cbz-Arg-Leu-OMe; configuration not given here) = > 100 µM

Q: Please indicate TGI recorded for CCOC(=O)C(NC(=O)c1cccc(Cl)c1)(Nc1ccc(S(=O)(=O)Nc2cc(C)nc(C)n2)cc1)C(F)(F)F (centres undefined)
A: > 100 µM

Q: Supply reported TGI belonging to this compound: COc1ccc2c(=O)c3c([nH]c2c1)OCC3=O
A: > 100 µM

Q: Specify measured TGI for C#CC(C)(C)OCCCCOc1cc(O)c2c(=O)c3ccccc3n(C)c2c1 .
A: > 100 µM

Q: Dear colleague, please send me the reported TGI for COc1ccc(CNCCCN2C(=O)c3ccc4c5c(ccc(c35)C2=O)C(=O)N(CCCNCc2ccc(OC)c(OC)c2OC)C4=O)c(OC)c1OC when you can.
A: 0.644 µM

Q: Let me know recorded TGI for CC1=C2[C@@H](CC1)[C@]1(C)O[C@@](C(C)C)(C[C@H]1OC(=O)CO)[C@H]2OC(=O)CCCc1ccccc1 , thanks.
A: 36.6 µM

Q: State, in one line, measured TGI of NNc1nc2ccccc2o1
A: > 100 µM

Q: Provide only the value of recorded TGI for S=C1SCN(Cc2ccccc2)CN1Cc1ccccc1
A: 3.02 µM

Q: // Input: C#CCOC(=O)/C=C/C(=O)Oc1ccc2c(C)cc(=O)oc2c1 . Output its TGI only.
A: > 100 µM

Q: Give recorded TGI. Cc1nn(C(=O)Cc2ccccc2)c2c1C(c1ccc([N+](=O)[O-])cc1)SC(N)=N2 (centres undefined)
A: > 100 µM

Q: State, in one line, measured TGI of CN[C@@H](Cc1cccc2ccccc12)C(=O)N[C@@H](CC(C)C)B(O)O
A: 0.281 µM

Q: Determine its reported TGI: CCOc1cc(C2SCC(=O)N2c2ccc3c(c2)Oc2c(Cl)c4c(c(Cl)c2=N3)Oc2cc(N3C(=O)CSC3c3ccc(O)c(OCC)c3)ccc2N=4)ccc1O (centres undefined)
A: > 100 µM

Q: Specify measured TGI for N#CC1(N2CCCC2)CCC2(CC1)OCCO2 .
A: > 100 µM

Q: For the compound O=S(=O)(O)n1ccnc1 (tested in a mixture with another compound) , give its reported TGI.
A: > 100 µM

Q: Give the reported value of TGI for this record: Fc1ccc(-c2ncn(CCCN3CCOCC3)c2-c2ccncc2)cc1
A: > 25 µM
